Property: Activity; scope: individual compounds
Test system: Avian myeloblastosis virus
EXPERIMENTAL PROTOCOL: Inhibition of AMV reverse transcriptase activity assessed as incorporation of dTMP in poly(rA)-oligo(dT) at 10 uM
Design: scale not given: the % may be the effect or the level left
Entry rule: numbers only, all in %.

These solved cases illustrate the format of a correct answer.
Challenge: Look up Activity for this compound: O=C(O[C@@H]1O[C@@H]2COC(=O)c3cc(O)c(O)c(O)c3-c3c(cc(O)c(O)c3O)C(=O)O[C@H]2[C@H](OC(=O)c2cc(O)c(O)c(O)c2)[C@H]1OC(=O)c1cc(O)c(O)c(O)c1)c1cc(O)c(O)c(Oc2c(C(=O)O[C@H]3O[C@@H]4COC(=O)c5cc(O)c(O)c(O)c5-c5c(cc(O)c(O)c5O)C(=O)O[C@H]4[C@H](OC(=O)c4cc(O)c(O)c(O)c4)[C@H]3OC(=O)c3cc(O)c(O)c(O)c3)cc(O)c(O)c2O)c1
Response given: 11

Challenge: Which value of Activity has been reported for Oc1cc(O)c2c(c1)O[C@H](c1ccc(O)c(O)c1)[C@H](O)[C@H]2c1c(O)cc(O)c2c1O[C@H](c1ccc(O)c(O)c1)[C@H](O)C2 in the records?
Response given: 97

Challenge: // returns reported Activity for input O=C[C@H](OC(=O)c1cc(O)c(O)c(O)c1)[C@@H](OC(=O)c1cc(O)c(O)c(O)c1)[C@@H]1OC(=O)c2cc(O)c(O)c(O)c2-c2c(cc(Oc3c(C(=O)O[C@@H](C=O)[C@@H](OC(=O)c4cc(O)c(O)c(O)c4)[C@@H]4OC(=O)c5cc(O)c(O)c(O)c5-c5c(cc(O)c(O)c5O)C(=O)OC[C@H]4O)cc(O)c(O)c3O)c(O)c2O)C(=O)OC[C@H]1O
Response given: 4

Switching to the query record.
Challenge: So what's the measured Activity for this one? O=c1oc2c(O)c(O)cc3c(=O)oc4c(O)c(O)cc1c4c23
Response given: 45
